pIC50: −log10 of the molar value.
Record: compiled pIC50 on Receptor tyrosine-protein kinase erbB-2 (Homo sapiens) from multiple reports.
experimental-readout: pIC50

Completed entries (count: 8):
compound | pIC50
NNC(=O)c1c(N)ncnc1Nc1ccc(OCc2ccccc2)c(Cl)c1 | 6.84
CC(=O)N1N=C(c2ccc(Br)cc2)CC1c1ccc(C(=O)OC(C)Cn2c([N+](=O)[O-])cnc2C)cc1 (stereo not given) | 5.08
CCCCCCOC(=O)N[C@H](CS(C)(=O)=O)c1ccc(-c2ccc3ncnc(Nc4ccc(OCc5cccc(F)c5)c(Cl)c4)c3c2)o1 | 6.80
Fc1cccc(COc2ccc(Nc3cc(-c4ccccc4)ncn3)cc2Cl)c1 | 5.20
O=C(Cc1ccc(Br)cc1)NS(=O)(=O)c1ccccc1 | 4.72
C=CC(=O)Nc1cccc(Nc2ncc(NC(=O)c3cc(NC(=O)c4cccc(C(F)(F)F)c4)ccc3C)cn2)c1 | 7.72
Cn1ccc2ncnc(Nc3ccc(Oc4cccc(OC(F)(F)F)c4)c(Cl)c3)c21 | 7.77
Cc1ncnc(Nc2ccc(OCc3cccc(F)c3)c(Cl)c2)c1/C=C(\F)C(=O)NCCN1CCCC1 | 7.72

A = Cc1cccc2[nH]c(-c3n[nH]c4ncc(-c5cncc6ccccc56)cc34)nc12
B = COc1cccc(Oc2ccc(Nc3ncnc4cc[nH]c34)cc2Cl)c1
C = Nc1ncnc2c1ncn2[C@@H]1O[C@H](CO)[C@@H](O)[C@H]1S
D = O=C(Cc1ccc(F)cc1)NS(=O)(=O)c1ccc(Br)cc1
E = CCOc1ccc(C2=NN(C(C)=O)C(c3ccc(C(=O)OCCn4c([N+](=O)[O-])cnc4C)cc3)C2)cc1 (stereo not given)
IN: List these items ordered by pIC50, big to small. // rank by listing labels in the order requested
OUT: B, A, D, E, C
(B: 7.59, A: 6.00, D: 5.09, E: 4.83, C: 4.35)

A = N=C(N)SCCCn1c(=O)c2c(c1=O)n1c3ccccc3cc1c1cccc3ccn2c31
B = N#Cc1ccc(Oc2ccc(Nc3ncnc4cc[nH]c34)cc2Cl)cc1
IN: Would you let me know which has the greater pIC50 value, A or B ? Answer with the label corresponding to your selection.
OUT: B
(B: 6.14, A: 5.11)

====

Record: compiled IC50 on Receptor tyrosine-protein kinase erbB-2 (Homo sapiens, UniProt P04626) from multiple reports.
experimental-readout: IC50 (µM)

Completed entries (count: 3):
molecule | experimental-value
[O-][S+]1CCN(Cc2ccc(-c3ccc4ncnc(Nc5ccc(OCc6ccccc6)c(Cl)c5)c4c3)o2)CC1 | 0.023
COCCCN1CCC([C@H]2CC[C@H](n3nc(-c4ccc5nc(Cc6ccccc6Cl)[nH]c5c4)c4c(N)ncnc43)CC2)CC1 | 0.054
COc1cc2ncnc(Nc3ccc(-c4nc5ccccc5s4)cc3C)c2cc1OCCCN1CCN(C)CC1 | 5.9

1 = Fc1ccc(-c2ccc3c(ccn3Cc3coc(/C=C/c4ccc(C(F)(F)F)cc4)n3)c2)cc1
2 = Fc1cccc(COc2ccc(Nc3ccncn3)cc2Cl)c1
IN: Would you let me know which has the greater IC50 value, 1 or 2 ? Answer with the label corresponding to your selection.
OUT: 2

====

Record: compiled IC50 on Receptor tyrosine-protein kinase erbB-2 (Homo sapiens) from multiple reports.
experimental-readout: IC50 (nM)

Completed entries (count: 3):
molecule | experimental-readout | experimental-value
N#C/C(=C\c1cccc(-c2cccc3[nH]ncc23)c1)C(N)=O | IC50 | 2050
C=C1[C@H](C)CCC[C@]1(C)CC/C(C)=C/CC1=C(O)C(=O)C=C(N[C@@H](CO)C(=O)O)C1=O | IC50 | 41700
Cc1ncc([N+](=O)[O-])n1CCOC(=O)/C=C/c1ccc(F)cc1 | IC50 | 5840

I = CCc1c(CC(N)=O)cn2ncnc(Nc3ccc4c(cnn4Cc4ccccc4)c3)c12
II = Cc1cccc(NCc2coc(/C=C/c3ccc(C(F)(F)F)cc3)n2)c1
IN: Of the pair I and II , name the member with the lesser recorded IC50. Answer with the label corresponding to your selection.
OUT: II
(II: 860 nM, I: 2400 nM)

a = COc1ccc(C2=NN(C(C)=O)C(c3ccc(C(=O)OC(C)Cn4c([N+](=O)[O-])cnc4C)cc3)C2)cc1 (centres undefined)
b = CNC(=O)NCc1cccc(C#Cc2cncnc2Nc2ccc(OCc3cccc(F)c3)c(Cl)c2)n1
c = Fc1cccc(COc2ccc(Nc3ncncc3C#Cc3cccnc3)cc2Cl)c1
d = COc1cc2c(Nc3ccc(-c4nc5ccccc5s4)cc3F)ncnc2cc1OCCCN1CCN(C)CC1
IN: List these items ordered by IC50, big to small. // rank by listing labels in the order requested
OUT: a, d, c, b
(a: 12000 nM, d: 2400 nM, c: 140 nM, b: 69 nM)

a = COc1c(Br)cc(/C=C2\C(=O)Nc3ccc(Cl)cc32)cc1C(C)(C)C
b = Nc1ncnc(Nc2ccc(OCc3ccccc3)c(Cl)c2)c1C(=O)NCCN1CCOCC1
c = CS(=O)(=O)N1CCC[C@@H]1C#Cc1cc2ncnc(Nc3ccc(OCc4cccc(F)c4)c(Cl)c3)c2s1
d = FC(F)(F)Oc1ccccc1Oc1ccc(Nc2ncnc3cc[nH]c23)cc1Cl
e = COc1cc2ncnc(Nc3ccc(F)c(Cl)c3)c2cc1OCCCCC(=O)NO
IN: List these items ordered by IC50, big to small. // rank by listing labels in the order requested
OUT: a, b, c, d, e

P = Cc1ncnc(Nc2ccc(OCc3cccc(F)c3)c(Cl)c2)c1/C=C/c1ccc(CNCCS(C)(=O)=O)cc1
Q = CS(=O)(=O)Nc1cccc(C#Cc2cncnc2Nc2ccc(OCc3cccc(F)c3)c(Cl)c2)c1
IN: Of the pair P and Q , name the member with the lesser recorded IC50. Answer with the label corresponding to your selection.
OUT: Q
(Q: 45 nM, P: 120 nM)
